Test system: ZR-75-1 cells
run_description: Proliferation assay ZR-75-1 (Alamar Blue, 144 h)
Assay type: cell-based
details: Homo sapiens, ZR-75-1, 144 h, arithmetic mean, read-out: ZR75-1 proliferation assay, EC50 [M] (arithmetic mean)
endpoint_label: EC50 (M)
Report as a plain number; the unit M is understood.

[[record]]
smiles_notation = "CCN(C)c1ccc2cc(C(=O)NS(=O)(=O)c3ccccc3-c3ccccc3)oc2c1"
meas_value = "8.93e-07"

[[record]]
smiles_notation = "COc1cccc(S(C)(=O)=O)c1S(=O)(=O)NC(=O)c1cc2ccc(N(C)C)cc2o1"
meas_value = "7.83e-06"

[[record]]
smiles_notation = "CCOc1cccc(-c2cccc(Cl)c2)c1S(=O)(=O)NC(=O)c1cc2ccc(N(C)C)cc2o1"
meas_value = "1.5e-07"

[[record]]
smiles_notation = "CCOc1cccc(C)c1S(=O)(=O)NC(=O)c1cc2ccc(N(C)C)cc2o1"
meas_value = "3.24e-07"


Please turn your attention to the following entry.
*Q* Need EC50 of "COc1cccc(S(=O)(=O)N(C)C)c1S(=O)(=O)NC(=O)c1cc2ccc(N(C)C)cc2o1" , thanks.
*A* 1.92e-06
